EXPERIMENTAL DETAILS: Antiviral activity against Hepatitis B virus subtype adw2 in human HepG2.2.15 cells assessed as inhibition of viral DNA replication by RT-PCR method
MEASURED QUANTITY: IC50 (µM)
Respond numerically; units are µM and should not be typed.

Take a look at these entries with their results.
# COMPOUND STRING, IC50 (µM)
data = [
    ("C=C1C[C@@]23CC[C@H]4[C@@](C)(CCC[C@@]4(C)NC(=O)Nc4ccc(OC)c(OC)c4)[C@@H]2CC[C@]1(O)C3", 14.3),
    ("C=C1C[C@@]23CC[C@H]4[C@@](C)(CCC[C@@]4(C)NC(=O)Nc4ccc(OC)cc4)[C@@H]2CC[C@]1(O)C3", 14.7),
    ("C=C1C[C@@]23CC[C@H]4[C@@](C)(CCC[C@@]4(C)NC(=O)Nc4cc(OC)c(OC)c(OC)c4)[C@@H]2CC[C@]1(O)C3", 6.3),
]

# compound C=C1C[C@@]23CC[C@H]4[C@@](C)(CCC[C@@]4(C)NC(=O)Nc4ccc(Cl)cc4)[C@@H]2CC[C@]1(O)C3 ; its IC50 = 4.5
